Tested on: C57BL/6 male mice
Assay: In vivo gallbladder measurement (weight) 8 h post dose
Conditions: 30 mg/kg, 8 h, vs. vehicle, one-way ANOVA, Dunnett's test
metric: Gallbladder weight/body weight fold change over vehicle, Significance

[ask] Quick one: Gallbladder weight/body weight fold change over vehicle, Significance of CN(C(=O)C1(OCc2cc(Cl)c(CCCCCNC(=O)NC[C@H](O)[C@@H](O)[C@H](O)[C@H](O)CO)cc2Cl)CC1)c1ccccc1OC1CC1 [Example 258] ?
[reply] n.s.

[ask] I would be grateful if you could share the reported Gallbladder weight/body weight fold change over vehicle, Significance for CN(C(=O)C1(OCc2cc(Cl)c(CCCCC(=O)NC[C@H](O)[C@@H](O)[C@H](O)[C@H](O)CO)cc2Cl)CC1)c1ccccc1OC1CC1 [Example 259] .
[reply] n.s.

[ask] Item O=C(CCCCc1cc(Cl)c(CNC2(C(=O)N3CCN(C4CC4)c4ccccc43)CC2)cc1Cl)NC[C@H](O)[C@@H](O)[C@H](O)[C@H](O)CO [Example 218] has what recorded Gallbladder weight/body weight fold change over vehicle, Significance?
[reply] n.s.

* * *

Listed here: items and their measured concentration at 8 h.
Assay: Compound concentration in gall bladder, LC-MS/MS, 8 h post dose
Format: in vivo
Conditions: male, C57BL/6, mouse, with contents, mice, 30 mg/kg, gallbladder homogenate, read-out: Mean Example Gallbladder Concentration
Give your result in nM as a bare value.

Recorded results for 8 compounds are shown here.
[ask] // concentration at 8 h lookup, key: O=C(CCc1cc(Cl)c(CN2CSC[C@H]2C(=O)N2CCN(C3CC3)c3ccccc32)cc1Cl)NC[C@H](O)[C@@H](O)C(O)[C@H](O)CO (stereo in doubt) [Example 97]
[reply] 520

[ask] Any idea what concentration at 8 h was measured for O=C(CCCCc1cc(Cl)c(CN2CSC[C@H]2C(=O)N2CCN(C3CC3)c3ccccc32)cc1Cl)N[C@@H](C(=O)O)[C@@H](O)[C@H](O)[C@H](O)CO [Example 240] ?
[reply] 3920

[ask] Looking for the measured concentration at 8 h of CN(C[C@H](O)[C@@H](O)[C@H](O)[C@H](O)CO)C(=O)CCCCc1cc(Cl)c(CN2CSC[C@H]2C(=O)N2CCN(C3CC3)c3ccccc32)cc1Cl [Example 238] , can you help?
[reply] 4400

[ask] Form field: reported concentration at 8 h of CN(C[C@H](O)[C@@H](O)[C@H](O)[C@H](O)CO)C(=O)CC[C@H](NC(=O)CCCCc1cc(Cl)c(CN2CSC[C@H]2C(=O)N2CCN(C3CC3)c3ccccc32)cc1Cl)C(=O)O [Example 278]
[reply] 3100

[ask] Could you share which concentration at 8 h value was measured for O=C(NCCCCCc1cc(Cl)c(CN2CSC[C@H]2C(=O)N2CCN(C3CC3)c3ccccc32)cc1Cl)NC(CO)(CO)CO [Example 198] ?
[reply] 1300

[ask] Query: concentration at 8 h; subject: O=C(NCCCCc1cc(Cl)c(CN2CSC[C@H]2C(=O)N2CCN(C3CC3)c3ccccc32)cc1Cl)NC[C@@H](O)[C@H](O)[C@@H](O)[C@@H](O)CO [Example 177]
[reply] 100

[ask] // lookup concentration at 8 h for CN(C(=O)C1(OCc2cc(Cl)c(CCCNC(=O)NC[C@H](O)[C@@H](O)[C@H](O)[C@H](O)CO)cc2Cl)CC1)c1ccccc1OC1CC1 [Example 96]
[reply] 1340

[ask] Find the recorded concentration at 8 h belonging to CN(C(=O)C1(OCc2cc(Cl)c(CCCCC(=O)NC[C@H](O)[C@@H](O)[C@H](O)[C@H](O)CO)cc2Cl)CC1)c1ccccc1OC1CC1 [Example 259] and report it.
[reply] 100

Next:
[ask] Endpoint output: concentration at 8 h of O=C(NCCCCCc1cc(Cl)c(CN2CSC[C@H]2C(=O)N2CCN(C3CC3)c3ccccc32)cc1Cl)NCP(=O)(O)O [Example 283] . Value?
[reply] 3060

* * *

Here, each record is paired with measured Gallbladder weight/body weight fold change over vehicle, Mean data.
Tested on: C57BL/6 male mice
Assay: In vivo gallbladder measurement (weight) 8 h post dose
Conditions: food removed, 30 mg/kg, eight hours after dosing
// units = fold change over vehicle; emit number, no label

[ask] Lookup: Gallbladder weight/body weight fold change over vehicle, Mean / C57BL/6 male mice / `O=C([C@@H]1CSCN1Cc1cc(Cl)cc(O)c1Cl)N1CCN(C2CC2)c2ccccc21`
[reply] 1.9

[ask] Please state recorded Gallbladder weight/body weight fold change over vehicle, Mean (tested on C57BL/6 male mice) of `O=C(N1CCN(C2CC2)c2ccccc21)C1(NCc2cc(Cl)ccc2Cl)CC1`
[reply] 1.6

[ask] What Gallbladder weight/body weight fold change over vehicle, Mean appears in the records for this compound with C57BL/6 male mice? `CN(C(=O)C1(OCc2cc(Cl)c(CCCCC(=O)NC[C@H](O)[C@@H](O)[C@H](O)[C@H](O)CO)cc2Cl)CC1)c1ccccc1OC1CC1`
[reply] 0.9

New cases:
[ask] What reported Gallbladder weight/body weight fold change over vehicle, Mean corresponds to `O=C(N1CCN(C2CC2)c2ccccc21)C1(NCc2cc(Cl)cc(O)c2Cl)CC1` on C57BL/6 male mice?
[reply] 1.3

[ask] Write down the reported Gallbladder weight/body weight fold change over vehicle, Mean of `CN(C(=O)C1(OCc2cc(Cl)c(CCCNC(=O)NC[C@H](O)[C@@H](O)[C@H](O)[C@H](O)CO)cc2Cl)CC1)c1ccccc1OC1CC1` , test system: C57BL/6 male mice.
[reply] 0.8

[ask] Recorded Gallbladder weight/body weight fold change over vehicle, Mean for `O=C(N1CCN(C2CC2)c2ccccc21)C1(NCc2cc(Cl)c(O)cc2Cl)CC1` with C57BL/6 male mice, please?
[reply] 1.5

* * *

Tested on: C57BL/6 male mice
Test: In vivo gallbladder measurement (weight) 8 h post dose
Settings: 30 mg/kg, 8 h, vs. vehicle, one-way ANOVA, Dunnett's test
metric: Gallbladder weight/body weight fold change over vehicle, Significance

[ask] What Gallbladder weight/body weight fold change over vehicle, Significance appears in the records for this molecule with C57BL/6 male mice? O=C(CCCCc1cc(Cl)c(COC2(C(=O)N3CCN(C4CC4)c4ccccc43)CC2)cc1Cl)NC[C@H](O)[C@@H](O)[C@H](O)[C@H](O)CO [Example 193]
[reply] n.s.

[ask] Request body: readout Gallbladder weight/body weight fold change over vehicle, Significance, system C57BL/6 male mice, query O=C(OC1(C(=O)N2CCN(C3CC3)c3ccccc32)CC1)c1cc(Cl)ccc1Cl [Example 166] . Return the value.
[reply] n.s.

[ask] Please provide the recorded Gallbladder weight/body weight fold change over vehicle, Significance for O=C(N1CCN(C2CC2)c2ccccc21)C1(NCc2cc(Cl)cc(O)c2Cl)CC1 [Example 167] , tested on C57BL/6 male mice.
[reply] n.s.

* * *

Tested on: C57BL/6 male mice
Test: In vivo gallbladder measurement (weight) 8 h post dose
Conditions: food removed, 30 mg/kg, eight hours after dosing
Listed here are compounds together with their documented Gallbladder weight/body weight fold change over vehicle, Mean.
Number in fold change over vehicle, nothing else.

Some solved entries appear below for comparison.
[ask] Quick one: Gallbladder weight/body weight fold change over vehicle, Mean for `O=C(OC1(C(=O)N2CCN(C3CC3)c3ccccc32)CC1)c1cc(Cl)ccc1Cl` ?
[reply] 1.2

[ask] What value of Gallbladder weight/body weight fold change over vehicle, Mean has been recorded for this entry: `CN(C[C@H](O)[C@@H](O)[C@H](O)[C@H](O)CO)C(=O)NCCCCOc1cc(Cl)c(CN2CSC[C@H]2C(=O)N2CCN(C3CC3)c3ccccc32)cc1Cl`
[reply] 1.0

[ask] Reported Gallbladder weight/body weight fold change over vehicle, Mean, compound `O=C(CCCCc1cc(Cl)c(COC2(C(=O)N3CCN(C4CC4)c4ccccc43)CC2)cc1Cl)NC[C@H](O)[C@@H](O)[C@H](O)[C@H](O)CO` : ____
[reply] 1.1

[ask] Please give the measured Gallbladder weight/body weight fold change over vehicle, Mean for this compound: `O=C(NCCCCCc1cc(Cl)c(CN2CSC[C@H]2C(=O)N2CCN(C3CC3)c3ccccc32)cc1Cl)NC(CO)(CO)CO`
[reply] 1.9

[ask] Entry `CN(C(=O)C1(OCc2cc(Cl)c(CCCCCNC(=O)NC[C@H](O)[C@@H](O)[C@H](O)[C@H](O)CO)cc2Cl)CC1)c1ccccc1OC1CC1` has what Gallbladder weight/body weight fold change over vehicle, Mean?
[reply] 1.1

# ---- query compound ----
[ask] Any idea what Gallbladder weight/body weight fold change over vehicle, Mean was measured for `O=C(CCCCc1cc(Cl)c(CNC2(C(=O)N3CCN(C4CC4)c4ccccc43)CC2)cc1Cl)NC[C@H](O)[C@@H](O)[C@H](O)[C@H](O)CO` ?
[reply] 1.0

* * *

Assay: Compound plasma concentration, LC-MS/MS, 8 h post dose
Format: in vivo
Conditions: 30 mg/kg, mice below LLOQ / mice in group
metric: Number of Mice with Plasma Concentration < LLOQ

Solved entries:
[ask] Given O=C(CCCCc1cc(Cl)c(CN2CSC[C@H]2C(=O)N2CCN(C3CC3)c3ccccc32)cc1Cl)NC[C@H](O)[C@@H](O)[C@H](O)[C@H](O)CO [Example 178] , state its recorded Number of Mice with Plasma Concentration < LLOQ.
[reply] 8/8

[ask] Find the recorded Number of Mice with Plasma Concentration < LLOQ belonging to O=C(N1CCN(C2CC2)c2ccccc21)C1(NCc2cc(Cl)cc(O)c2Cl)CC1 [Example 167] and report it.
[reply] 5/8

[ask] Requested read-out: Number of Mice with Plasma Concentration < LLOQ. Entry: CN(C[C@H](O)[C@@H](O)[C@H](O)[C@H](O)CO)C(=O)CC[C@H](NC(=O)CCCCc1cc(Cl)c(CN2CSC[C@H]2C(=O)N2CCN(C3CC3)c3ccccc32)cc1Cl)C(=O)O [Example 278]
[reply] 5/8

[ask] For the compound shown here, CN(C[C@H](O)[C@@H](O)[C@@H](O)[C@H](O)CO)C(=O)CCc1cc(Cl)c(CN2CSC[C@H]2C(=O)N2CCN(C3CC3)c3ccccc32)cc1Cl [Example 98] , give the reported Number of Mice with Plasma Concentration < LLOQ.
[reply] 4/8

More entries:
[ask] What value of measured Number of Mice with Plasma Concentration < LLOQ is listed for CN(C[C@H](O)[C@@H](O)[C@@H](O)[C@H](O)CO)C(=O)CCCCc1cc(Cl)c(CN2CSC[C@H]2C(=O)N2CCN(C3CC3)c3ccccc32)cc1Cl [Example 239] ?
[reply] 6/8

[ask] Item under review: O=C(CCc1cc(Cl)c(CN2CSC[C@H]2C(=O)N2CCN(C3CC3)c3ccccc32)cc1Cl)NC[C@H](O)[C@@H](O)C(O)[C@H](O)CO (stereo in doubt) [Example 97] . Reported Number of Mice with Plasma Concentration < LLOQ?
[reply] 7/8
